From: ChEMBL document CHEMBL2029212

Biological target: CYP2C19 (Homo sapiens, UniProt P33261)
Sequence (P33261 whole entry): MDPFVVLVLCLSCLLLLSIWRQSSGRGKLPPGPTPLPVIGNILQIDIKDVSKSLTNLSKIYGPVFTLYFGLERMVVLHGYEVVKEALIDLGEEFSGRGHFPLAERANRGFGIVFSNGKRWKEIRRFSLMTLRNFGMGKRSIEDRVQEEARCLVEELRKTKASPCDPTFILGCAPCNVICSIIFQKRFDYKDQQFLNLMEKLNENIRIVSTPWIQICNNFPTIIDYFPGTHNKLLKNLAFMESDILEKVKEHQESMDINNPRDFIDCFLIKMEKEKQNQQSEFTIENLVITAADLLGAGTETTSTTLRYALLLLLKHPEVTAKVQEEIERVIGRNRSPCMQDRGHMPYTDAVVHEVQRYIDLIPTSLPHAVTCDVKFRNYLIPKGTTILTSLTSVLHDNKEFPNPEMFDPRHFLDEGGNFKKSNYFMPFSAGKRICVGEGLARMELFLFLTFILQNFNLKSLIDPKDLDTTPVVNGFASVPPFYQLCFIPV
Test: Inhibition of CYP2C19 at 1 uM
Assay type: ADME
metric_name: inhibition at 1 µM (%)
A number alone suffices; assume %.

// sample `CC(C)CCn1ccc(-c2ccc(Oc3ccncc3)cc2)c(C#N)c1=O` , its inhibition at 1 µM was 97

###

Biological target: CYP3A4 (Homo sapiens, UniProt P08684)
Sequence (P08684 whole entry): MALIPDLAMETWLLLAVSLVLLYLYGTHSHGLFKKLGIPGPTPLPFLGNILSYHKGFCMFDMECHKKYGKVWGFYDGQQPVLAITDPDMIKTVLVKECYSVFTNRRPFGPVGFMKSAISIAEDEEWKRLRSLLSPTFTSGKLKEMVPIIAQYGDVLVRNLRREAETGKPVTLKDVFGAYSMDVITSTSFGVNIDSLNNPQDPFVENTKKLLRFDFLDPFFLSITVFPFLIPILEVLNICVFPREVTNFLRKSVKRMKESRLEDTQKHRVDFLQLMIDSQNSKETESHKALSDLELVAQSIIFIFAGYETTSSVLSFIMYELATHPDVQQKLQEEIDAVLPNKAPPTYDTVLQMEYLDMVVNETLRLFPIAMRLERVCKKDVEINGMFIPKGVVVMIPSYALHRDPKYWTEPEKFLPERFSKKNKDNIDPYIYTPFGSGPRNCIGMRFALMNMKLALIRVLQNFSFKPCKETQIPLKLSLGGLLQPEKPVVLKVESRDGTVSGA
Test: Inhibition of CYP3A4 at 5 uM
Format: ADME
metric_name: inhibition at 5 µM

Entry under test: `CC(C)CCn1ccc(-c2ccc(Oc3ccccc3)cc2)c(C#N)c1=O` . Its inhibition at 5 µM was < 50%

###

Assign metabolised at 0.25 h, 5 µM to each entry below.
Assay: Drug metabolism in rat liver microsomes at 5 uM after 15 mins
Type: ADME, Microsome
Conditions: read-out: Drug metabolism
Reply numerically in %, unit not repeated.

Summary for this compound, `CC(C)CCn1ccc(-c2ccc(OC3CCOCC3)c(Cl)c2)c(C#N)c1=O` : metabolised at 0.25 h, 5 µM is 54

Looking up `CC(C)CCn1ccc(-c2ccc(OCC3CC3)cc2)c(C#N)c1=O` , I see its metabolised at 0.25 h, 5 µM listed as 16

The reported metabolised at 0.25 h, 5 µM of the compound `Cc1ccc(Oc2ccc(-c3ccn(CCC(C)C)c(=O)c3C#N)cc2)c(C)n1` was 49

// sample `CC(C)CCn1ccc(-c2ccc(Nc3ccncc3)cc2)c(C#N)c1=O` , its metabolised at 0.25 h, 5 µM was 33

Documented metabolised at 0.25 h, 5 µM of `CCCCn1ccc(-c2ccc(Oc3cccnc3C)c(Cl)c2)c(C#N)c1=O` : 60

Value of metabolised at 0.25 h, 5 µM reported for the compound `CC(C)CCn1ccc(-c2ccc(Oc3ccccc3)cc2)c(C#N)c1=O` is 32

metabolised at 0.25 h, 5 µM for `CCCCn1ccc(-c2ccc(Oc3ccnc(C)c3)cc2Cl)c(C#N)c1=O` is 47

The recorded metabolised at 0.25 h, 5 µM for `CC(C)CCn1ccc(-c2ccc(NC3CCOCC3)c(Cl)c2)c(C#N)c1=O` is 47

metabolised at 0.25 h, 5 µM measured on `Cc1ccc(Oc2ccc(-c3ccn(CC4CC4)c(=O)c3C#N)cc2)c(C)n1` = 42

// recorded metabolised at 0.25 h, 5 µM for `Cc1ncccc1Oc1ccc(-c2ccn(CC3CC3)c(=O)c2C#N)cc1` : 39

###

Assign solubility to each entry below.
Experiment: Aqueous solubility of the compound in 20% HP-beta-CD buffer at pH 4
Format: physicochemical

In plain terms, `CC(C)CCn1ccc(-c2ccc(Oc3cccnc3)cc2)c(C#N)c1=O` has a documented solubility of ≥ 4 mg/mL

Per the records, this molecule ( `CC(C)CCn1ccc(-c2ccc(Oc3ccncc3)cc2)c(C#N)c1=O` ) has solubility equal to ≥ 4 mg/mL

###

Molecular target: Metabotropic glutamate receptor 2 (Homo sapiens)
Assay: Positive allosteric modulation of human mGlu2 receptor expressed in CHO cells assessed as glutamate-induced [35S]GTPgammaS binding after 30 mins by liquid scintillation counting relative to glutamate
Format: functional, cell-based
Sequence (Q14416 19-872 limits assumed): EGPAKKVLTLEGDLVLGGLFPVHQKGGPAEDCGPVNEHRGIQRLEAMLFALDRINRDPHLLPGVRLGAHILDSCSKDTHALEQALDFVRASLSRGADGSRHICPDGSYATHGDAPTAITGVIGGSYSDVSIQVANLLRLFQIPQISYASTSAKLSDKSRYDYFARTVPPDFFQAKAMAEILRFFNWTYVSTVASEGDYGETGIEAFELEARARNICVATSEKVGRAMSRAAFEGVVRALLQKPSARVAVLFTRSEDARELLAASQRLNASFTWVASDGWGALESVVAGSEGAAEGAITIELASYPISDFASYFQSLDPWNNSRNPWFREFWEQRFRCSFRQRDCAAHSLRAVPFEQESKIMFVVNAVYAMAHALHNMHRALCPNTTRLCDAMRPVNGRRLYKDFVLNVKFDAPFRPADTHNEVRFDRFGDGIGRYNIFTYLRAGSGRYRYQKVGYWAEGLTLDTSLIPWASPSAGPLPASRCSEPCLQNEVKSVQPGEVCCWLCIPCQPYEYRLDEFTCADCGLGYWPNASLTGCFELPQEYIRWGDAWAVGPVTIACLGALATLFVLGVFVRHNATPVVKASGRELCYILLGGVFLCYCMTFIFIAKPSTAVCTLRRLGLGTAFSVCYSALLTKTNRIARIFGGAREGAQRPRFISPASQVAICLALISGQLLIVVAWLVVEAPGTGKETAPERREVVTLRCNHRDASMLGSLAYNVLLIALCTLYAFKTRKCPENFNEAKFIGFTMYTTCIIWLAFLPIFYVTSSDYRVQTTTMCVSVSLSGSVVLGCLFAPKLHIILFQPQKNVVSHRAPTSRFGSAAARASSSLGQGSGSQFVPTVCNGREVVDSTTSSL
Think of 200% as a floor: if Emax stands on it or above, it is T; beneath it, F.

Ask | Tell me whether Emax is at least 200% here: `CC(C)CCn1ccc(-c2ccc(NC3CCOCC3)c(Cl)c2)c(C#N)c1=O`
Reply | T

Ask | Given the entry `CNc1ccc(-c2ccn(CCC(C)C)c(=O)c2C#N)cc1` , answer whether its Emax meets or surpasses 200%.
Reply | F

Ask | Exam item: decide whether the reported Emax for `COc1cccc(-c2ccn(CCC(C)C)c(=O)c2C#N)c1` is at least 200%.
Reply | F

Ask | Check the entry `COc1ccc(-c2ccn(CCC(C)C)c(=O)c2C#N)cc1F` : does Emax equal or exceed 200%?
Reply | F

Ask | Determine whether this compound has Emax no lower than 200%: `CC(C)CCn1ccc(-c2ccc(OCC3CC3)cc2)c(C#N)c1=O`
Reply | F

Ask | Hello, I need to know if `CC(C)CCn1ccc(-c2ccc(Oc3ccncc3)cc2)c(C#N)c1=O` has measured Emax not below 200%. Thanks!
Reply | T

Ask | For this compound, is measured Emax 200% or higher? `CC(C)CCn1ccc(-c2ccc(Oc3cccnc3)cc2)c(C#N)c1=O`
Reply | T

Ask | Answer whether Emax of `COc1ccccc1-c1ccn(CCC(C)C)c(=O)c1C#N` is greater than or equal to 200%.
Reply | F

###

Target: Metabotropic glutamate receptor 2 (Homo sapiens, UniProt Q14416)
Assay: Positive allosteric modulation of human mGlu2 receptor expressed in CHO cells assessed as glutamate-induced [35S]GTPgammaS binding after 30 mins by liquid scintillation counting
Sequence (Q14416 whole entry): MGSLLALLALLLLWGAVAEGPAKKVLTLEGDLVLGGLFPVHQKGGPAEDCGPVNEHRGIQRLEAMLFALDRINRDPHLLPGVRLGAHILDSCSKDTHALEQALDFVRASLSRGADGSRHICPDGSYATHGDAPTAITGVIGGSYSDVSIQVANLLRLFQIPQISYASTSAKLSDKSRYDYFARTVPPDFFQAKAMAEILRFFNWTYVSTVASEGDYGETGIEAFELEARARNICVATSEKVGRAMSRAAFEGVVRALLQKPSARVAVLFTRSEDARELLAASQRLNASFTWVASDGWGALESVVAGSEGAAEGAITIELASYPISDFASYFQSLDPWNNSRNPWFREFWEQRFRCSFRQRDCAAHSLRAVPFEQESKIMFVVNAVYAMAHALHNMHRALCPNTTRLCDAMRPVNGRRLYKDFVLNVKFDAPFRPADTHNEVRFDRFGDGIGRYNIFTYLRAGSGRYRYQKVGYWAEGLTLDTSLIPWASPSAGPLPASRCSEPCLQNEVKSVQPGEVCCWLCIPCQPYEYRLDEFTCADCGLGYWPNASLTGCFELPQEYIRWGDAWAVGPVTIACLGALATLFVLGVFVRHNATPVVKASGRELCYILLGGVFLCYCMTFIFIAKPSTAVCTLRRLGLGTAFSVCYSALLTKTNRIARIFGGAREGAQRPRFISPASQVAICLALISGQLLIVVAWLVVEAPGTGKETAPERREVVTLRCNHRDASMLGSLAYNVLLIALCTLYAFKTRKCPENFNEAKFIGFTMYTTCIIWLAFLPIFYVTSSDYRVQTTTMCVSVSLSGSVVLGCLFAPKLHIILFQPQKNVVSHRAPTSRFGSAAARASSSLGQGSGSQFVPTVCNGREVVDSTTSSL
metric_name: pEC50
By convention, pEC50 is the negative base-10 log of a molar concentration.

Entry `COc1ccc(-c2ccn(CCC(C)C)c(=O)c2C#N)cc1F` , pEC50 reported as 5.93

Reported pEC50 for `Cc1cc(Oc2ccc(-c3ccn(CCC(C)C)c(=O)c3C#N)cc2)ccn1` was 6.35

For reference, reported pEC50 for `CC(C)CCn1ccc(-c2ccc(N3CCOCC3)cc2)c(C#N)c1=O` stands at 5.69

Data point: `CC(C)CCn1ccc(-c2ccc(Oc3cccnc3)cc2)c(C#N)c1=O` ; pEC50 = 6.32

So for `COc1ccc(-c2ccn(CCC(C)C)c(=O)c2C#N)cc1Cl` , the logged pEC50 turned out to be 6.44

Notebook: `CC(C)CCn1ccc(-c2ccc(OCC3CC3)c(Cl)c2)c(C#N)c1=O` , pEC50 read as 6.96

The reported pEC50 of the compound `CC(C)CCn1ccc(-c2ccc(Oc3ccccc3)cc2)c(C#N)c1=O` was 7.38

Quick note, pEC50 for `CCCCn1ccc(-c2ccc(Oc3cccnc3C)cc2)c(C#N)c1=O` landed at 6.46

Notebook: `Cc1ncccc1Oc1ccc(-c2ccn(CC3CC3)c(=O)c2C#N)cc1` , pEC50 read as 5.97

Sure, the documented pEC50 for `CC(C)CCn1ccc(-c2ccc(Oc3ccncc3)cc2)c(C#N)c1=O` is 6.26

Short answer for `CCCCn1ccc(-c2ccc(Oc3ccc(C)nc3C)cc2)c(C#N)c1=O` : pEC50 was 6.86

compound `CC(C)CCn1ccc(-c2ccccc2)c(C#N)c1=O` , pEC50 observed: 5.07

The compound `Cc1ccc(Oc2ccc(-c3ccn(CC4CC4)c(=O)c3C#N)cc2Cl)c(C)n1` showed pEC50 equal to 7.19

pEC50 recorded for this compound, `COc1ccc(-c2ccn(CCC(C)C)c(=O)c2C#N)cc1OC` , is 6.59

Field pEC50 (entry `CNc1ccc(-c2ccn(CCC(C)C)c(=O)c2C#N)cc1` ) reads 6.34

Lab note: measured pEC50 of `CC(C)CCn1ccc(-c2ccc(NC3CCOCC3)c(Cl)c2)c(C#N)c1=O` was 6.76

Lab book: pEC50 of `CCCCn1ccc(-c2ccc(Oc3cc(C)nc(C)c3)c(F)c2)c(C#N)c1=O` noted as 6.43

Measured pEC50, `CCCCn1ccc(-c2ccc(Oc3ccnc(C)c3)cc2Cl)c(C#N)c1=O` : 6.03

Recorded pEC50 (compound `CC(C)CCn1ccc(-c2ccc(OC3CCOCC3)c(Cl)c2)c(C#N)c1=O` ): 6.73

pEC50 recorded for this compound, `CCCCn1ccc(-c2ccc(Oc3ccc(C)nc3C)c(Cl)c2)c(C#N)c1=O` , is 7.52

Lab note: measured pEC50 of `Cc1ccc(Oc2ccc(-c3ccn(CCC(C)C)c(=O)c3C#N)cc2)c(C)n1` was 7.00

###

Target: Metabotropic glutamate receptor 2 (Homo sapiens)
Experiment: Positive allosteric modulation of human mGlu2 receptor expressed in CHO cells assessed as glutamate-induced [35S]GTPgammaS binding after 30 mins by liquid scintillation counting relative to glutamate
Assay type: functional, cell-based
Give Emax for every item shown.
All answers are understood in %, so give the number only.

Data point: `CCCCn1ccc(-c2ccc(Oc3ccnc(C)c3)cc2Cl)c(C#N)c1=O` ; Emax = 187

The reported value for `CCCCn1ccc(-c2ccc(Oc3ccnc(C)c3)cc2)c(C#N)c1=O` in terms of Emax is 243

`COc1ccc(-c2ccn(CCC(C)C)c(=O)c2C#N)cc1` has a reported Emax of 160

For `CCCCn1ccc(-c2ccc(Oc3cccnc3C)cc2)c(C#N)c1=O` the compound record lists Emax as 228

Sure, the documented Emax for `CC(C)CCn1ccc(-c2ccc(N3CCOCC3)cc2)c(C#N)c1=O` is 236

// field: Emax; key: `Cc1ccc(Oc2ccc(-c3ccn(CCC(C)C)c(=O)c3C#N)cc2)c(C)n1` ; value = 246

###

Biological target: CYP2C19 (Homo sapiens, UniProt P33261)
Assay: Inhibition of CYP2C19 at 5 uM
Assay type: ADME
metric_name: inhibition at 5 µM

# compound `Cc1cc(Oc2ccc(-c3ccn(CCC(C)C)c(=O)c3C#N)cc2)ccn1` ; its inhibition at 5 µM = < 50%
